Numbers sourced from the supplement of paper PMC10567573.

B1: KRT71 (parent)
chain: ELRNVQDVVEDYKKRYEEEINKRT

# Variants of: B1
# assay details: protein stability index of a GFP-peptide fusion (GPS, HEK-293T) (PSI 1-6); higher = more stable;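 also: lentivirally expressed fusions sorted by FACS into six bins by GFP to DsRed ratio, PSI derived from sequencing read proportions per bin multiplied by bin number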
# condition context: c terminus: a fixed tail appended
Would you mind telling me the reported protein stability index of each entry?
Could you respond with only the numeric value?

Query: Look up protein stability index for this variant: "D7I"
Result: 2.62

Query: If you can, please state the reported protein stability index value of "K22P" .
Result: 3.47

Query: Report protein stability index for "N21K" please.
Result: 4.54

Query: Item "K22H" has what recorded protein stability index?
Result: 3.68
